Tested on: relapsed AML cells
Assay: Drug sensitivity assay, 1,536-well, 3-day culture with individual approved drugs at 10 μM, viability by alamarBlue
Type: cell-based, human
Details: number of relapsed AML cases out of 18 tested with >70% cell death; 10 μM, 3-day culture
#Cases >70% cell death values, listed per item

[
  {
    "Compound": "Cc1cc(C(=O)NOCCO)c(Nc2ccc(I)cc2F)n(C)c1=O [AZD8330]",
    "Value Reported": 2
  },
  {
    "Compound": "CC(=O)O[C@@]12CO[C@@H]1C[C@H](O)[C@@]1(C)C(=O)[C@H](O)C3=C(C)[C@@H](O)C[C@@](O)([C@@H](OC(=O)c4ccccc4)[C@H]21)C3(C)C [10-DAB]",
    "Value Reported": 1
  }
]

**Query** Which #Cases >70% cell death value is on record for C#CCC(Cc1cnc2nc(N)nc(N)c2n1)c1ccc(C(=O)N[C@@H](CCC(=O)O)C(=O)O)cc1 (stereo partly drawn) [PRALATREXATE(FOLOTYN, PRALATREXATE] ?
**Result** 5

---

Test system: relapsed AML cells
Assay: Drug sensitivity assay, 1,536-well, 3-day culture with individual approved drugs at 10 μM, viability by alamarBlue
Type: cell-based, human
Details: number of relapsed AML cases out of 18 tested with >70% cell death; 10 μM, 3-day culture
Quantity Name: #Cases >70% cell death

[
  {
    "Compound": "CCCC1O[C@@H]2C[C@H]3[C@@H]4CCC5=CC(=O)C=C[C@]5(C)[C@H]4[C@@H](O)C[C@]3(C)[C@]2(C(=O)CO)O1 (stereo partly shown) [BUDESONIDE]",
    "#Cases >70% cell death": 2
  },
  {
    "Compound": "O=C(Nc1cccnn1)N1CCC(=Cc2cccc(Oc3ccc(C(F)(F)F)cn3)c2)CC1",
    "#Cases >70% cell death": 1
  },
  {
    "Compound": "Nc1nc(F)nc2c1ncn2[C@@H]1O[C@H](COP(=O)(O)O)[C@@H](O)[C@@H]1O [FLUDARABINE PHOSPHATE]",
    "#Cases >70% cell death": 4
  },
  {
    "Compound": "CN1CCC(CNc2ccc3ncc(-c4cccc(OC(F)(F)F)c4)n3n2)CC1",
    "#Cases >70% cell death": 14
  },
  {
    "Compound": "CCN(CC)CCNc1ccc(CO)c2sc3ccccc3c(=O)c12",
    "#Cases >70% cell death": 9
  }
]

**Query** Which #Cases >70% cell death value is on record for CC[C@@H](C(=O)[C@@H](C)[C@@H](O)[C@H](C)CCc1ccc(C)c(O)c1C(=O)O)[C@H]1O[C@](CC)([C@H]2CC[C@](O)(CC)[C@H](C)O2)C[C@@H]1C [LASALOCID SODIUM] ?
**Result** 10

**Query** Please do the same for `CCn1cc(C(=O)O)c(=O)c2cnc(N3CCCC3)nc21` as well.
**Result** 5

---

System: relapsed AML cells
Experiment: Drug sensitivity assay, 1,536-well, 3-day culture with individual approved drugs at 10 μM, viability by alamarBlue
Type: cell-based, human
Conditions: number of relapsed AML cases out of 18 tested with >70% cell death; 10 μM, 3-day culture
Where a name gives a salt, the structure may show the parent alone.
#Cases >70% cell death values, listed per item
Answer with a number only.

Reference set (3 entries):
[
  {
    "Compound": "c1ccc(CC2=NCCN2)cc1 [TOLAZOLINE HYDROCHLORIDE]",
    "#Cases >70% cell death": 4
  },
  {
    "Compound": "CCCn1c(=O)c2[nH]c(C34CC5CC(CC3C5)C4)nc2n(CCC)c1=O",
    "#Cases >70% cell death": 1
  },
  {
    "Compound": "COc1cccc2c1C(=O)c1c(O)c3c(c(O)c1C2=O)C[C@@](O)(C(C)=O)C[C@@H]3O[C@H]1C[C@H](N)[C@H](O)[C@H](C)O1",
    "#Cases >70% cell death": 18
  }
]

**Query** Tell me reported #Cases >70% cell death for `COc1ccc2c(c1)/C(=C/c1cnc[nH]1)C(=O)N2` , tested with relapsed AML cells.
**Result** 1

**Query** Please do the same for `CN1CCN(CCCN2c3ccccc3Sc3ccc(C(F)(F)F)cc32)CC1` as well.
**Result** 3

**Query** Please do the same for CC(C)C(=O)Nc1ccc([N+](=O)[O-])c(C(F)(F)F)c1 [FLUTAMIDE] as well.
**Result** 2

**Query** Please do the same for CC[C@@]1(O)C(=O)OCc2c1cc1n(c2=O)Cc2cc3cc(O)ccc3nc2-1 [10-HYDROXYCAMPTOTHECIN] as well.
**Result** 12

**Query** Please do the same for `CCNC1(C(N)=O)CCN(c2ncnc3c2nc(-c2ccccc2Cl)n3-c2ccc(Cl)cc2)CC1` as well.
**Result** 1
